SYSTEM_NAME: βarr1–12-387-AF488-AT647N (cysteine-free human β-arrestin 1 C-tail sensor with cysteines at positions 12 and 387) (human) (UniProt P49407)
ASSAY_OVERVIEW: single-molecule FRET
Where no end group is shown, it is not given here. [ ]: non-standard residue; d: D form. pT = C[C@@H](OP(=O)(O)O)[C@H](N)C(=O)O; pS = N[C@@H](COP(=O)(O)O)C(=O)O
OUTCOME_MEASURE: EC50 (µM)
One number for each entry, in µM.

IN: Please indicate EC50 recorded for ARGR[pT]PP[pS]LGPQDE[pS]C[pT][pT]A[pS][pS][pS]LAKDTSS
OUT: 11.6
